assay: label from the status in PepcDB records
quantityKind: protein production

MGRLVSLLPSATDLIFELGLGEQLLGVSHCCDHPGAASLPVLTRSIIGSDLPQAEIDRAVSEAVRAGRALYTVDGPLLDRLRPDLVVTQGVCEVCAVTPGTVAEAVRFLPGCLPAEQVLSLEGKTFAGILADLRALARAAGLEHHHHHH ... failed
MSEILRQPSVLLFLTLAVYALAIIVRTRTGNIFCNPVLVSTIVLIAYLKILGIDYAVYHNAAQFIDFRLKPAVVVLAVPLYQNRRKIFNQWLPVIVSQLAGSVTGIVTGMYFAKWLGAEREVVLPLASKSVTNPIAIEITRSIGGIPAITAATVIIAGLVGQIAGYKMLKNTVVMPSSVGMSLGTASHAMGIAASLERSRRMAAYAGMGLTFNGVLTALIAPLLIPVLGF ... failed
MAKVCYFTGRKTVSGNNRSHAMNKTKRVVKPNLQKVTVLIDGKPKKVWASARALKSGKVERVLEHHHHHH ... failed

###

experiment: label from the status in PepcDB records
quantityKind: protein production

Recorded protein production, per entry:
MKNVLYTLFAISICLMLGKLANYLLAALPASLYGMIIYALFLQLNWFSPDKITKTNQWFIKHMGVCLVPAGMGIINHFQLIQQHGIALVVIIFSSTFILLTVIGYLSERYLITPDNIKSKAPTGSR ... failed
MSELVINNNIVNDLLIKQFTNYVFMMIVTDIKGNIIYANKKYCQFNHINFESIKNKRYNLFYLVDENQDVFSNISDNKEVIRLEAKNPNKNKQEVWEDINIVPIFDKNNLISHYAFLSLDITD ... failed
MKTKAKISSRWLRFRALLIDIFLIYIPILYLFYFLLGSKEAFLNNHFITTLCTFLFGLIQAIFLTKKAQSPGLKAYDLYLIDIKTGKKLSFLRILLRYVIFIISFGLLFGLFVSFVRKDRLNLHDILTQSCIATKSIKKG ... failed
MQGIKRKLVYVTAYELIGMSISTLGLALLAGSTPTTTGPLAVVITTVAVTWNFIYNCLFEFWERRQAVRGRSIARRVAHAIGFQLTLVVYLIPLIAWWMGISLLEAFWLDLALIVLIPCYTFLFNWAFDRLFGLPTSALPAGEAASV ... failed
MLLSIIMPAHNAAAYLERTLALLAQQIAGLEQVEVVAIDDASTDETAKILVEFARTHSWLKAISVDFANVGLARQAGIGLAGGQYVTFLDSDDAFLSGGLAWMVNVLRQRAPDLLMTPLQETGQPLDGTEVAGLFQDVVPLSTQQACDLFCEHQRLQGHFAGKCVTRQILLQHDLAAMECYEDMMTTPHWIVEAKSIVWGEVPVYAYYKRPGSLSDRGQTWRYGKEYIRALQSIEAAFAGRIAVWQTAHLWIGFAKDLLKTSTGRQFLDTQPAVAEKIQSISVWKYLVATQVSCKWKIRFLRVRLRLLEHHHHHH ... not failed
MATFFSLALYAGSFTFILREGGIPFYYLGVFFAIAVILYLIFNSLSREYVGRAGDAIIVPVSILMVAVAFVLVYISQSIPIISVSVALFTVSLIMFYNSTVRNEVSISTNERIFMGGAGLGGFIGLIVAGVFPGKMSVLDSYMAIIMLAVGLAAVFVFFRRPTGRFSIADAFHVFVRPFNSMEKIRTIEKKLLLLAVSLDEIFVWIAIGASFPFVISAGLGSGMSRPAVMFSVAAAIIIGAALVYVFESSNIPATPFFYPVKDLILVAGLLLLSFMYPASYVAGMIFLALLPVAFIGSVRFLKSQFPSSFDFRQITSFFRNPIMVIAPLMGSILWAVSGAMLFLTAMAFAIFALVIGIIVITNPKIFKVSDPYETANN ... failed
MEGLAAFIIITLMIIIVPGPDFFVVMKNSITSGKGNGAMAALGITSGHVVYSLLAVFGIIFILANMYYVFVTIKILGAIYLIYLGIRSIISARQSMNFSTSQLKAQRITYLSSYRQGFFSTILNPKALLYYISILPQFLSTGEAVTSQIAILTAIVTTVILLWFIFCVYIFQYIKLLFTNRKIKAIFDYTVGAILIGLSLNLLLSKSS ... failed

// next entry
// query Give its protein production value. Item: MAENHCELLPPAPSGLGAGLGGGLCRRCSAGMGALAQRPGGVSKWVRLNVGGTYFLTTRQTLCRDPKSFLYRLCQADPDLDSDKDETGAYLIDRDPTYFGPVLNYLRHGKLVINKDLAEEGVLEEAEFYNITSLIKLVKDKIRERDSRISQMPVKHVYRVLQCQEEELTQMVSTMSDGWKFEQLVSIGSSYNYGNEDQAEFLCVVSKELHNTPYGTTSEPSEKAKILQERGSRM
// result not failed

###

test: label from the status in PepcDB records
quantityKind: protein production

Recorded protein production, per entry:
VWICTKCVRCKSCGSTTPGKGWDAQWSHDFSLCHDCAKLFAKGNFCPLCDKCYDDDDYESKMMQCGKCDRWVHSKCENLSDEMYEILSNLPESVAYTCVNCTERHPAEWRLALEKELQISLKQVLTALLNSRTTSHLLRYRQAAKPPDLNPETEESIPSRSSPEGPDPPVLTEVSKQDDQQPLDLEGVKRKMDQGNYTSVLEFSDDIVKIIQAAINSDGGQPEIKKANSMVKSFFIRQMERVFPWFSVKKSRFWEPNKVSSNSGMLPNAVLPPSLDHNYAQWQEREENSHTEQ ... failed
MTTPIRVVVWNEFRHEKKDEQVRAIYPEGMHTVIASYLAEAGFDAATAVLDEPEHGLTDEVLDRCDVLVWWGHIAHDEVKDEVVERVHRRVLEGMGLIVLHSGHFSKIFKKLMGTTCNLKWREADEKERLWVVAPGHPIVEGIGPYIELEQEEMYGEFFDIPEPDETIFISWFEGGEVFRSGCTFTRGKGKIFYFRPGHETYPTYHHPDVLKVIANAVRWAAPVNRGEIVFGNVKPLEPIKAKQGGVTQ ... not failed
MFNNDRLLVQILLLALFGACLWVMAPFWSALVWGAVLAFASWPLMRLLTRWFKGRESLAALVMCLCWMLLVAAPLVWLGFNLADHVRDATALIKDIQVDGLPDPPQWLAGIPLVGERLVGLWTTIDQQGAAFMTTVKPYLGEVGNWLLARSAQIGGGILELTLSIVFAFFFYRDGPRLAAFVLSLLERLIGDRAQYYLDLVAGTVQRVVNGVIGTAAAQALLALIGFLIAGIPGALVLGILTFLFSLIPMGPPLVWLPATAWLVWQGEYGMAIFLGIWGMFVISGVDNVLKPYLISRGGNLPLVIVLLGVFGGLLAFGFIGLFIGPTLLAVAYSLLTDWVGSERARNPR ... failed
MGAPPPANEDDRLAALHSYNILDTAPEPLYDDITAAAAQLCRTPMALISLIDQDRQWFKSRVGMQPAETPRDLAFCAHAILQPDQMMEVGDTFVDPRFARNALVTGGPQIRFYAGAPLLTSDGVALGTLCVLDRAPRTLSDAERTALQALARQVVTTIELRQAARLLEGDALRDPLTDLWNREGLEHMLEDAAPVAKLHGLAFVLIEIDGFKRLKLQFGSDAADATLVQAARCIETEPQEPGGVARIGAAHFCMVLPGADSAQALASVQRLQTTIAAACWPADTISITAGLVCVAPGEPLDSHVLMARARHALLGAARAGRNCVQRFDGWQTDR ... failed
MITVFGLKSKLAPRREKLAEVIYNSLHLGLDIPKGKHAIRFLCLEKEDFYYPFDRSDDYTVIEINLMAGRMEGTKKRLIKMLFSELEYKLGIRAHDVEITIKEQPAHCWGFRGMTGDEARDLDYDIYV ... not failed
MSVWLLQMKTNAIITDITKSIVKMDRILVYRHTNPDPDAIGAQFGLVALLKAAYPEKLVVAMAPVPGHLAWIDTTDEQLVTPQATDLVIAVDCANHERLAGELPTGAFVIKIDHHPNHDPYGQLNWVDETYSSCSEMIYELAQAGCFTVTAAVATKLYAGIIGDTVRFSTPETSTRTLKIASALAATDIDIATISHHEMDLTPALSKLYGYVLSEQTIEPSGLAHVVLPQRIFSDLSLEYGDEDALVPLPGNLTTVKVWLFFIETPQGQYRVHFRSKAINVNAVAKAFNGGGHPLASGAFVPDLATVGQVIEQMQAQVLAATAVDLEHHHHHH ... failed

// query Give its protein production value. Item: MMMLPEACIANILAFTSPADAFSSSEVSSVFRLAGDSDFVWEKFLPSDYKSLISQSTDHHWNISSKKEIYRCLCDSLLIDNARKLFKINKFSGKISYVLSARDISITHSDHASYWSWSNVSDSRFSESAELIITDRLEIEGKIQTRVLSANTRYGAYLIVKVTKGAYGLDLVPAETSIKSKNGQISKSATYLCCLDEKKQQMKRLFYGNREERMAMTVEAVGGDGKRREPKCRDDGWMEIELGEFETREGEDDEVNMTLTEVKGYQLKGGILIDGIEVRPKT
// result failed

// query Give its protein production value. Item: MAKGSAKKSFLDLFKITDSNDDDFDDDMFDDEDEMEDEYDDPYDEAYDSEEEYDDGSDAASDRAKASPLKSFNKYKNSRTPSGNVSKTKTAKSSQNSKLVSINSRSDRDSYDDSEVFVIKPDEFDDAQMIIDHLNRGQIIVINMEDLDLPTAQRIADFIGGASYAVNGLFQAISGNIFLATPNGTYVSGDLREELAGGSLGGEDLSKATY
// result failed
